- TARGET: h FPR2 (Homo sapiens)
- Sequence (P25090 whole entry): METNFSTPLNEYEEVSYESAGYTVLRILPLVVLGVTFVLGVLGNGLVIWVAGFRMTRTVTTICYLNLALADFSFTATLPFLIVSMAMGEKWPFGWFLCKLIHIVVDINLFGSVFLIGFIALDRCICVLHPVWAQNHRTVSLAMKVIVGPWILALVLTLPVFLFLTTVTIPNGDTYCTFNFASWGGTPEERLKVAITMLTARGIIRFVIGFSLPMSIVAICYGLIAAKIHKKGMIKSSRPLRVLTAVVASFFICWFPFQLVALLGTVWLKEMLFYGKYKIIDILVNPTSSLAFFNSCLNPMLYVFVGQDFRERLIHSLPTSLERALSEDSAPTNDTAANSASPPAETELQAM
- ASSAY PROCEDURE: Agonistic activity in hFPR2-Aq-CHO cells (FLIPR Calcium 5 fluorescence assay)
- CONDITION DESCRIPTION: 11 point half log dilution, final assay concentration from 10µM
pEC50: −log10 of the molar value.
READOUT: pEC50

[[record]]
molecule = "O=C(Nc1ccccc1)N[C@@H]1CCN(CC(F)F)C[C@H]1c1ccc(Cl)cn1 (relative stereo)"
readout = "pEC50"
quantitative_readout = 7.92

[[record]]
molecule = "COc1ccc([C@@H]2CN(c3ccncn3)CC[C@H]2NC(=O)Nc2ccc(Cl)cc2)cn1 (relative stereo)"
readout = "pEC50"
quantitative_readout = 8.22

[[record]]
molecule = "COc1ccc([C@@H]2CN(Cc3cnc(OC)nc3)CC[C@H]2NC(=O)Nc2ccc(Cl)cc2)nc1 (relative stereo)"
readout = "pEC50"
quantitative_readout = 9.70

[[record]]
molecule = "COc1ccc([C@@H]2CN(Cc3cnc(C)nc3)CC[C@H]2NC(=O)Nc2ccc(Cl)cc2)nc1 (relative stereo)"
readout = "pEC50"
quantitative_readout = 9.22

[[record]]
molecule = "COc1ccc([C@@H]2CN(Cc3cnn(S(C)(=O)=O)c3)CC[C@H]2NC(=O)Nc2ccc(Cl)cc2)nc1 (relative stereo)"
readout = "pEC50"
quantitative_readout = 10.05

[[record]]
molecule = "CNCCC(=O)N1CC[C@@H](NC(=O)Nc2ccc(Cl)cc2)[C@H](c2ccc(OC)cn2)C1 (relative stereo)"
readout = "pEC50"
quantitative_readout = 8.40


Sourced from patent EP3789378A1
